Biological target: Vasopressin V1a receptor (Homo sapiens); further: assay procedure not described here
Sequence (P37288 whole entry): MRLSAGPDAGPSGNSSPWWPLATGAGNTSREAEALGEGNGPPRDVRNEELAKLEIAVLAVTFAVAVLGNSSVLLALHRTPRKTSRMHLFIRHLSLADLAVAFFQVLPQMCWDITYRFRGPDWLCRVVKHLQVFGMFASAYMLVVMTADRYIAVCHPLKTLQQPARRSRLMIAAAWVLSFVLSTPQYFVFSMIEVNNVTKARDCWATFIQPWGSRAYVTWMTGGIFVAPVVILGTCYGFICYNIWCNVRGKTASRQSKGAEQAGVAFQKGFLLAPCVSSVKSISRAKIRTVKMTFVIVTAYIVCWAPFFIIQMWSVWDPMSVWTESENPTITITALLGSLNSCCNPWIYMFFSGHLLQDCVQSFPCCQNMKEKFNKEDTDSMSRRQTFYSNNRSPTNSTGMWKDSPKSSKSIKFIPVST
measuredAttribute: AC50

{"compound": "CCCCC1C(=O)N(c2ccccc2)N(c2ccccc2)C1=O", "experimentalResult": "> 30 µM"}
{"compound": "COc1ccc2nc3cc(Cl)ccc3c(Nc3cc(CN4CCCC4)c(O)c(CN4CCCC4)c3)c2n1", "experimentalResult": "> 30 µM"}
{"compound": "CCOC(=O)C1=C[C@]2(CC)CCCN3CCc4c(n1c1ccccc41)[C@@H]32", "experimentalResult": "> 30 µM"}
{"compound": "C=C[C@H]1C[N@@]2CC[C@H]1C[C@@H]2[C@@H](O)c1ccnc2ccc(OC)cc12", "experimentalResult": "> 30 µM"}
{"compound": "CCCC(CCC)C(=O)O", "experimentalResult": "> 30 µM"}

Please give AC50 for each item listed below.
1. CC(C)N(CCC(C(N)=O)(c1ccccc1)c1ccccn1)C(C)C (stereo not drawn) [DISOPYRAMIDE]
2. C[C@]12C=CC(=O)N[C@@H]1CC[C@@H]1[C@@H]2CC[C@]2(C)[C@@H](C(=O)Nc3cc(C(F)(F)F)ccc3C(F)(F)F)CC[C@@H]12 [DUTASTERIDE]
3. CN(C)CC[C@@H](c1ccc(Cl)cc1)c1ccccn1
4. Clc1ccc(C(Cn2ccnc2)OCc2ccsc2Cl)c(Cl)c1 (stereo not drawn)
5. O=C(O)c1ccccc1Nc1cc(Cl)ccc1C(=O)O
6. CC(=O)OCC(=O)[C@@]1(O)[C@H](C)C[C@H]2[C@@H]3CCC4=CC(=O)C=C[C@]4(C)[C@@]3(F)[C@@H](O)C[C@@]21C [DEXAMETHASONE ACETATE]

Result:
1: > 30 µM; 2: > 10 µM; 3: > 30 µM; 4: > 30 µM; 5: > 30 µM; 6: > 30 µM

----------
Record set of AC50 for target or system UniProt O43193.
Sequence (O43193 whole entry): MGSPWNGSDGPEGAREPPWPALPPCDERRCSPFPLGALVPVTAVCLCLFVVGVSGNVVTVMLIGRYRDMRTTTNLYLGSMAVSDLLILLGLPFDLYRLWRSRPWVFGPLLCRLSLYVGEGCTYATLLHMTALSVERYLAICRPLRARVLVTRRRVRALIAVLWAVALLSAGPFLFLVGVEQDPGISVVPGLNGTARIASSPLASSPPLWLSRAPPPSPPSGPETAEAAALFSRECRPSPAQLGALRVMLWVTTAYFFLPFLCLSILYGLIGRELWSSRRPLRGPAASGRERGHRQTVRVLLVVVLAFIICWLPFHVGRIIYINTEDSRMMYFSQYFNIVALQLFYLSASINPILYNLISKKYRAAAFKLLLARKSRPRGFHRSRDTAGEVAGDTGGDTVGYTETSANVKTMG

Answer for every listed entry: what is its AC50? The entries follow.
1. CC(C(=O)O)c1ccc2c(c1)[nH]c1ccc(Cl)cc12 (configuration not stated)
2. CCCC(CCC)C(N)=O [VALPROMIDE]
3. CCC(C)C1(CC)C(=O)NC(=O)NC1=O (configuration not stated)
4. CO[C@H]1/C=C/O[C@@]2(C)Oc3c(C)c(O)c4c(O)c(c(/C=N/N5CCN(C)CC5)c(O)c4c3C2=O)NC(=O)/C(C)=C\C=C\[C@H](C)[C@H](O)[C@@H](C)[C@@H](O)[C@@H](C)[C@H](OC(C)=O)[C@@H]1C
5. Cc1onc(-c2ccccc2)c1-c1ccc(S(N)(=O)=O)cc1

Result:
> 30 µM
> 10 µM
> 30 µM
> 30 µM
> 30 µM

Quick request: AC50 for each listed item, please.
1. CCN(CC)CCNC(=O)c1cc(S(C)(=O)=O)ccc1OC [TIAPRIDE]
2. CC(C(=O)O)c1ccc(-c2ccccc2)c(F)c1 (configuration not stated)
3. CCCN(CCC)C(=O)Cc1c(-c2ccc(Cl)cc2)nc2ccc(Cl)cn12
4. CC(C)COCC(CN(Cc1ccccc1)c1ccccc1)N1CCCC1 (configuration not stated)
5. C[C@]12CC[C@@H]3c4ccc(O)cc4C[C@@H](CCCCCCCCC[S+]([O-])CCCC(F)(F)C(F)(F)F)[C@H]3[C@@H]1CC[C@@H]2O (some centres not stated)

Result:
["> 30 µM", "> 10 µM", "> 30 µM", "20.2 µM", "> 30 µM"]

Below are 7 compounds. Give each one its AC50.
1. CC12CC3CC(C)(C1)CC(N)(C3)C2 [MEMANTINE]
2. C[C@@H](Oc1cc(-c2cnn(C3CCNCC3)c2)cnc1N)c1c(Cl)ccc(F)c1Cl
3. OC1(c2ccc(Cl)cc2)c2ccccc2C2=NCCN21 (configuration not stated)
4. CC(=O)N[C@@H](CS)C(=O)O
5. CC(=O)OCC(=O)[C@@]1(O)[C@H](C)C[C@H]2[C@@H]3CCC4=CC(=O)C=C[C@]4(C)[C@@]3(F)[C@@H](O)C[C@@]21C [DEXAMETHASONE ACETATE]
6. COCC1=C(C(=O)O)N2C(=O)[C@@H](NC(=O)/C(=N\OC)c3csc(N)n3)[C@H]2SC1
7. COc1ccc(-c2noc(CC(=O)O)c2-c2ccc(OC)cc2)cc1

Result:
["> 10 µM", "16 µM", "> 30 µM", "> 30 µM", "> 10 µM", "> 30 µM", "> 30 µM"]

Where these numbers come from: ChEMBL document CHEMBL5291721
